This collection of values is drawn from PubChem BioAssay AID1159580.

- Test Summary: chemical genetic growth profiling, strain panel (AID 1159580);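 note: tested at 20 µM; growth read once vehicle control cultures reached saturation at 30 °C; 1 = growth at the plate median or of vehicle wells; lower values mean less growth of the strain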
- Cond: S. cerevisiae deletion strains, growth OD, locus YJL168C, strain set2, stronger effect = lower value
Screen size: about 5,500 compounds; about 2,000 (36%) were called active. Not shown: some 18% with an inconclusive outcome. Some of the results follow.
Readout Name: normalized growth

> print(dat)
                                    compound  experimental.result
 1  COc1ccc(-c2c(O)c3c(OC)c4c(cc3oc2=O)OC(C)(C)C=C4)cc1        0.93 (active)
 2  C=C(C)C1Cc2c(ccc(C(=O)O)c2O)O1 (stereo unspecified)     0.946 (inactive)
 3              Cn1c(=O)c2c(ncn2CCO)n(C)c1=O      1.01 (inactive)
 4  COC1=CC23CCCN2CCc2cc4c(cc2C3C1O)OCO4 (stereo unspecified)         1 (inactive)
 5        NS(=O)(=O)c1cc2c(cc1Cl)NCNS2(=O)=O     0.993 (inactive)
 6  CCC[C@@H]1C[C@@H](C(=O)N[C@H]([C@H]2O[C@H](SC)[C@H](O)[C@@H](O)[C@H]2O)[C@H](C)O)N(C)C1     0.992 (inactive)
 7  COc1cc(OC)c2c(OC)c(-c3ccc4c(c3)OCO4)c(=O)oc2c1     0.976 (inactive)
 8             CC(C)N1C(=O)c2ccccc2NS1(=O)=O         1 (inactive)
 9  CN(C)CCC[C@@]1(c2ccc(F)cc2)OCc2cc(C#N)ccc21      1.02 (inactive)
10                Cn1cnc2c1c(=O)[nH]c(=O)n2C      1.01 (inactive)
11            CC(=O)Nc1c(I)cc(I)c(C(=O)O)c1I      0.99 (inactive)

###

The following compounds are listed with their measured normalized growth values.
- Test Summary: chemical genetic growth profiling, strain panel (AID 1159580);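 note: tested at 20 µM; growth read once vehicle control cultures reached saturation at 30 °C; 1 = growth at the plate median or of vehicle wells; lower values mean less growth of the strain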
- Cond: S. cerevisiae deletion strains, growth OD, locus YML016C, strain PPZ1, stronger effect = lower value
The campaign covered roughly 5,500 compounds. About 2,000 (36%) were called active. Another 18% or so got no clear call; they are omitted. Some of the results follow.
Readout Name: normalized growth

> print(dat)
                                   compound       readout.name  experimental.result
1  O=C(c1ccccc1)c1ccc2n1CCC2C(=O)O (configuration not stated)  normalized growth                0.998
2         O=c1c(O)c(-c2ccccc2)oc2cc(O)ccc12  normalized growth                0.455
3       CCCCCC/C=C\CCCCCCCc1cccc(O)c1C(=O)O  normalized growth                0.989
4                                       CON  normalized growth                    1
5       O=c1c(O)c(-c2ccccc2)oc2ccc3occc3c12  normalized growth                0.939
6        NS(=O)(=O)c1cc2c(cc1Cl)NCNS2(=O)=O  normalized growth                 1.01
7           COc1cc(Cc2cnc(N)nc2N)cc(OC)c1OC  normalized growth                0.994
